# IC50 values compiled below
target: Sentrin-specific protease 7 (Homo sapiens); type: functional;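 note: Luminescence-based dose-response confirmation of ultra-high-throughput screening hits, measuring inhibition of SENP7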
Sequence (Q9BQF6 whole entry): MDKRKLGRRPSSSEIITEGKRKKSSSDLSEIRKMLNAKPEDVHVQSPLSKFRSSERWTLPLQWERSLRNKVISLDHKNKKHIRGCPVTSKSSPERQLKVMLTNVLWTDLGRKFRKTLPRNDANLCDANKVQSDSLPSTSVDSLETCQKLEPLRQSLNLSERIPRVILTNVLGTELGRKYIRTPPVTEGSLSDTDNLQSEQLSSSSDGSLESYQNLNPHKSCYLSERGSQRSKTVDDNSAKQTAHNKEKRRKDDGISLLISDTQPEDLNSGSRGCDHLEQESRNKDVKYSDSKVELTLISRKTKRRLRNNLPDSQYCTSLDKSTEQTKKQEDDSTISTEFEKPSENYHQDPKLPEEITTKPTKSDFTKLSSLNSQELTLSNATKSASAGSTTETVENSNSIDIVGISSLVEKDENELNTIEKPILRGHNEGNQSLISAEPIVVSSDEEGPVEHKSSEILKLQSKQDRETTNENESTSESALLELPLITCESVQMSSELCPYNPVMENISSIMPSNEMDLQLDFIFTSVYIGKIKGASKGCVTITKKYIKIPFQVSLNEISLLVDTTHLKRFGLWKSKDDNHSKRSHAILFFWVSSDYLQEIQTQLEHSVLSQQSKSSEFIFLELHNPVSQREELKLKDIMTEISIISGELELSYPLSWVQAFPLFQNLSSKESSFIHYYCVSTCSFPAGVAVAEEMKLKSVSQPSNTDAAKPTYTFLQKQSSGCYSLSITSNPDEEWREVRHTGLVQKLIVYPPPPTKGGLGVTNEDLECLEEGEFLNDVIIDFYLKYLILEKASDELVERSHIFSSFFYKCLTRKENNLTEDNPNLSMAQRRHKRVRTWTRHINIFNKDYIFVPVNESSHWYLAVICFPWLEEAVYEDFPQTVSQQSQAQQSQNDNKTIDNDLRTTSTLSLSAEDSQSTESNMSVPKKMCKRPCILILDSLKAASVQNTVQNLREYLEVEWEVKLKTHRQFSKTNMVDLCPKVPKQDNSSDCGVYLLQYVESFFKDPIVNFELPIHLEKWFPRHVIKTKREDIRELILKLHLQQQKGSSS
Calls of active or inactive are those of the source.

CCOC(=O)c1cc(-c2cc3ccccc3o2)[nH]n1 5.55 µM (active)
CC(C)OCCCNC1=C(Cl)C(=O)c2ccccc2C1=O 19.4 µM (active)
CC(=O)c1sc(N/N=C\c2ccc(N(C)C)cc2)nc1C 3.05 µM (active)
CC(=O)N(C1=C(Cl)C(=O)c2ccccc2C1=O)c1ccc(C(=O)O)cc1 8.9 µM (active)

Next item in the queue.
stdin: Let me know recorded IC50 for O=C(/C=C/c1ccc(Br)cc1)NC(=O)c1ccccc1O , thanks.
stdout: 8.1 µM (active)

---

These molecules were tested on Cytochrome P450 1A2 (Homo sapiens); AC50 is the recorded read-out.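 Note: PubChem cytochrome P450 panel assay, CYP1A2 panel member.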
Sequence (P05177 whole entry): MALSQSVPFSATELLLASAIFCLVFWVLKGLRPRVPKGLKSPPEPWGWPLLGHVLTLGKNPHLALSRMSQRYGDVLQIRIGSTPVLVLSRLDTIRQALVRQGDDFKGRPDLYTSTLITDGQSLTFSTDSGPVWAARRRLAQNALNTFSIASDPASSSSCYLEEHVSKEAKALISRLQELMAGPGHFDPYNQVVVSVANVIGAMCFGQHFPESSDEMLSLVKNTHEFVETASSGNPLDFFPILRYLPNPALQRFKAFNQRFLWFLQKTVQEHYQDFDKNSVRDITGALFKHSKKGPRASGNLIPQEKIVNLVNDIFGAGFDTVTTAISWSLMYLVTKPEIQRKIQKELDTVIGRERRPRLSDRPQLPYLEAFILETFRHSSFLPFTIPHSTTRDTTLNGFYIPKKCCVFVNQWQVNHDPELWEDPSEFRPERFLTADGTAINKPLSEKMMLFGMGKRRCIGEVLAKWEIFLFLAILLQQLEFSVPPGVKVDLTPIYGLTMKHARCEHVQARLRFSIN

Molecule	Tgt	Result type	Result
CCOC(=O)CC1NC(=O)c2ccccc21 (centres undefined)	Cytochrome P450 1A2 (Homo sapiens)	AC50	28.2 µM (inconclusive)
CCC(C)(C)n1nnnc1C(C(C)C)N(CCCO)Cc1cc2cc(C)ccc2nc1O (centres undefined)	Cytochrome P450 1A2 (Homo sapiens)	AC50	15.8 µM (inconclusive)

stdin: Output reported AC50 of the molecule S=C1SCN(CCN2CCOCC2)CN1Cc1ccccc1 on Cytochrome P450 1A2 (Homo sapiens).
stdout: 6.31 µM (inconclusive)

stdin: For Cytochrome P450 1A2 (Homo sapiens), give the measured AC50 of the entry CCCC[C@H](CC)CNC(=N)NC(=N)NCCCCCCNC(=N)NC(=N)NC[C@@H](CC)CCCC
stdout: 15.8 µM (inconclusive)

---

Listed here are compounds together with their documented AC50.
experiment: non-specific 3'UTR reporter inhibition in Clone20-Shn3RL – cell-based, Renilla luciferase, cherry-picked, counter-screen for Shn3 inhibitor project, dose response (AID 624133); type: functional
The source made the active and inactive calls.

Worked examples follow.
Compound	Result type	Result
COCc1c(C(=O)Nc2cccc(S(=O)(=O)N3CCCCC3)c2)oc2ccccc12	AC50	26.4 µM (active)
Oc1c(C(Nc2ccccn2)c2ccccn2)ccc2cccnc12 (stereo not given)	AC50	2.88 µM (active)
Cc1nc2ccccc2cc1OCc1ccc(F)cc1	AC50	22.1 µM (active)
CS(=O)(=O)c1ccc(C(=O)OCC(=O)NCc2cccs2)cc1[N+](=O)[O-]	AC50	13.4 µM (active)

// moving on: another record for AC50
stdin: Report measured AC50; entry is Cc1ccc(Nc2c(-c3ccccn3)nc3cc(C)ccn23)cc1
stdout: 61.3 µM (active)

---

test system: P388/ADR; assay: cells; type: functional; conditions: Mus musculus
The source made the active and inactive calls.
Could you please pick one outcome from this set? YES for active, NO for inactive

Record excerpt, results attached:
Molecule	Tgt	Label
COc1cc(CCCOC2OC(COC3OCC(O)C(O)C3O)C(O)C(O)C2O)cc2cc(-c3ccc4c(c3)OCO4)oc12 (configuration not stated)	P388/ADR	NO
CN(C)c1nc(N(C)C)nc(N(C)C)n1	P388/ADR	NO
C[C@@H]1[C@@H]2[C@@H](C=C3C4CCC5Cc6nc7c(nc6C[C@@]5(C)C4C[C@H](O)[C@]32CO)CC2CCC3C4=C[C@H]5O[C@@]6(OC(C)(CO)C[C@@H]6O)[C@H](C)[C@@]5(O)[C@]4(C)[C@@H](O)CC3[C@]2(C)C7)O[C@]12CCC(C)(C)O2 (some centres not stated)	P388/ADR	YES

stdin: I would be grateful if you could indicate the recorded call for CN(C)CCNC(=O)c1cc(Cl)cc2ccc(-c3ccccc3)nc12 .
stdout: NO

stdin: Any idea what this test logged for COc1ccc(N[C@@H]2c3cc4c(cc3C(c3cc(OC)c(O)c(OC)c3)[C@H]3C(=O)OCC32)OCO4)cc1OC (some centres not stated) ?
stdout: YES

stdin: Hi team, can someone confirm the assay call for C=CCC(O[Si](C)(C)C(C)(C)C)c1cc(O[Si](C)(C)C(C)(C)C)ccc1OC (configuration not stated) ?
stdout: NO

stdin: State the result this test recorded for C=CCc1cccc(/C=N\N/C(N)=N/O)c1O .
stdout: YES
